system: panel of cancer cell lines; assay: Cell viability (CellTiter-Glo) dose-response across cancer cell line panel; format: cell-based, human; settings: Homo sapiens, AML-193 cells;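 also: after 72 h compound incubation with CellTiter-Glo ATP readout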
measurement_kind: pEC50
Give bare numbers, as −log10 of the molar value.

Enter reported pEC50 observed with panel of cancer cell lines for COCc1ccccc1NCc1ccc([C@@H]2[C@H](O)CCCc3cncn32)c(-c2ccccc2Cl)c1
4.72

###

test system: panel of cancer cell lines; test: Cell viability (CellTiter-Glo) dose-response across cancer cell line panel; format: cell-based, human; details: Homo sapiens, ACC-MESO-1, ACC-MESO-1;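 also: after 72 h compound incubation with CellTiter-Glo ATP readout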
measurement_kind: EC50 (nM)
Answers are plain numbers, in nM.

[
  {
    "compound": "NS(=O)(=O)OC[C@@H]1C[C@@H](n2ccc3c(N[C@H]4CCc5ccccc54)ncnc32)C[C@@H]1O [MLN4924]",
    "EC50 [nM]": 1560
  },
  {
    "compound": "COCc1ccccc1NCc1ccc([C@H]2[C@@H](O)CCCc3cncn32)c(-c2ccccc2Cl)c1 [CSN5i-2]",
    "EC50 [nM]": 2400
  }
]

Alright, here's another compound for you.
Any idea what its EC50 is? The compound is CC(C)C[C@H](NC(=O)[C@H](Cc1ccccc1)NC(=O)c1cnccn1)B(O)O [Bortezomib]
23.6

###

system: panel of cancer cell lines; experiment: Cell viability (CellTiter-Glo) dose-response across cancer cell line panel; format: cell-based, human; details: Homo sapiens, OCI-AML-5, OCI-AML5 cells;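 also: after 72 h compound incubation with CellTiter-Glo ATP readout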
measurement_kind: pEC50
Numbers only, as −log10 of the molar value.

Any idea what its pEC50 is? The compound is COCc1ccccc1NCc1ccc([C@@H]2[C@H](O)CCCc3cncn32)c(-c2ccccc2Cl)c1
5.02

###

tested on: panel of cancer cell lines; assay: Cell viability (CellTiter-Glo) dose-response across cancer cell line panel; format: cell-based, human; conditions: Homo sapiens, MIA PaCa-2, MIA PaCa-2;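 also: after 72 h compound incubation with CellTiter-Glo ATP readout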
Kindly supply the reported EC50 values for the records listed here.
Answers are plain numbers, in µM.

[
  {
    "structure_smiles_string": "NS(=O)(=O)OC[C@@H]1C[C@@H](n2ccc3c(N[C@H]4CCc5ccccc54)ncnc32)C[C@@H]1O",
    "measurement_units": "µM",
    "EC50": 0.518
  }
]

Alright, here's another compound for you.
Any idea what its EC50 is? The compound is COCc1ccccc1NCc1ccc([C@H]2[C@@H](O)CCCc3cncn32)c(-c2ccccc2Cl)c1
1.81

###

system: panel of cancer cell lines; assay: Cell viability (CellTiter-Glo) dose-response across cancer cell line panel; format: cell-based, human; details: Homo sapiens, Rh41, cell line RH-41;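 also: after 72 h compound incubation with CellTiter-Glo ATP readout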
measurement_kind: pEC50
One number for each entry, as −log10 of the molar value.

Any idea what its pEC50 is? The molecule is CC(C)C[C@H](NC(=O)[C@H](Cc1ccccc1)NC(=O)c1cnccn1)B(O)O
8.13

###

Kindly supply the reported EC50 values for the records listed here.
system: panel of cancer cell lines; experiment: Cell viability (CellTiter-Glo) dose-response across cancer cell line panel; assay type: cell-based, human; details: Homo sapiens, SU-DHL-6, SU-DHL-6;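 also: after 72 h compound incubation with CellTiter-Glo ATP readout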
Numbers only, in nM.

[
  {
    "molecule": "COCc1ccccc1NCc1ccc([C@H]2[C@@H](O)CCCc3cncn32)c(-c2ccccc2Cl)c1 [CSN5i-2]",
    "target_system": "panel of cancer cell lines",
    "EC50 [nM]": 261
  }
]

Alright, here's another molecule for you.
Any idea what its EC50 is? The molecule is NS(=O)(=O)OC[C@@H]1C[C@@H](n2ccc3c(N[C@H]4CCc5ccccc54)ncnc32)C[C@@H]1O [MLN4924]
248
